Biological target: MET (Homo sapiens, UniProt P08581)
Construct: purchased Eurofins DiscoverX KINOMEscan (scanTK)
Assay: KINOMEscan ScanTK
Format: binding
Conditions: read-out: %Control @1000nM
# key: entry, value: remaining binding at 1 µM
measurement.type: remaining binding at 1 µM (%)

CCOC(=O)c1cnc(S(C)(=O)=O)nc1N1CCC[C@@H](n2nc(-c3ccc(Oc4ccccc4)cc3)c3c(N)ncnc32)C1 [Compound 8c] ... 100
CNC(=O)c1cnc(S(C)(=O)=O)nc1N1CCCC(n2nc(-c3ccc(Oc4ccccc4)cc3)c3c(N)ncnc32)C1 (centres unmarked) [Compound 8d] ... 100
C=CC(=O)N1CCC[C@@H](n2nc(-c3ccc(Oc4ccccc4)cc3)c3c(N)ncnc32)C1 [Compound 1g, Ibrutinib, reference compound] ... 100
Cc1cnc(S(C)(=O)=O)nc1N1CCCC(n2nc(-c3ccc(Oc4ccccc4)cc3)c3c(N)ncnc32)C1 (centres unmarked) [Compound 8a] ... 100
COC(=O)c1cnc(S(C)(=O)=O)nc1N1CCCC(n2nc(-c3ccc(Oc4ccccc4)cc3)c3c(N)ncnc32)C1 (centres unmarked) [Compound 8b] ... 100

###

Molecular target: ITK (Homo sapiens)
Construct: purchased Eurofins DiscoverX KINOMEscan (scanTK)
Sequence (Q08881 whole entry): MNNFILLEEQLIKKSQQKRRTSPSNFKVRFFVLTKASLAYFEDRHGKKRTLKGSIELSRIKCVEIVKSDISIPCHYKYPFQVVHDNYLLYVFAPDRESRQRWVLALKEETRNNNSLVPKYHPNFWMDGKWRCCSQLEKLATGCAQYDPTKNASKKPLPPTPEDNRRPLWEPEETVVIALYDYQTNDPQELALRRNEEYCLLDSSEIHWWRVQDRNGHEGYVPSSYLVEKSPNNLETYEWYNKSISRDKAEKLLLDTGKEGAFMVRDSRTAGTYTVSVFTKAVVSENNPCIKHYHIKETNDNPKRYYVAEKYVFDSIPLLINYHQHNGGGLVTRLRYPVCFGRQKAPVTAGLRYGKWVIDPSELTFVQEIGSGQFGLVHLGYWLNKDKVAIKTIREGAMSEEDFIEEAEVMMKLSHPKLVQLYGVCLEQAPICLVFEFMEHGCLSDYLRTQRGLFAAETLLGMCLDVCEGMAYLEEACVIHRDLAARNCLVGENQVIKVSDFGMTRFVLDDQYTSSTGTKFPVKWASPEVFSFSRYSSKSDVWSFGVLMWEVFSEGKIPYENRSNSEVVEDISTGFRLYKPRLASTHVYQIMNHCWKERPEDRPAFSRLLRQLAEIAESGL
Experiment: KINOMEscan ScanTK
Type: binding
Conditions: @1000nM; ITK
measurement.type: difference in %Control versus compound Ib at 1 µM (%)

CCOC(=O)c1cnc(S(C)(=O)=O)nc1N1CCC[C@@H](n2nc(-c3ccc(Oc4ccccc4)cc3)c3c(N)ncnc32)C1 ... 73
Cc1cnc(S(C)(=O)=O)nc1N1CCCC(n2nc(-c3ccc(Oc4ccccc4)cc3)c3c(N)ncnc32)C1 (stereo not shown) ... 69
CNC(=O)c1cnc(S(C)(=O)=O)nc1N1CCCC(n2nc(-c3ccc(Oc4ccccc4)cc3)c3c(N)ncnc32)C1 (stereo not shown) ... 66
COC(=O)c1cnc(S(C)(=O)=O)nc1N1CCCC(n2nc(-c3ccc(Oc4ccccc4)cc3)c3c(N)ncnc32)C1 (stereo not shown) ... 56

###

Target: AXL (Homo sapiens)
Construct: purchased Eurofins DiscoverX KINOMEscan (scanTK)
Sequence (P30530 26-894): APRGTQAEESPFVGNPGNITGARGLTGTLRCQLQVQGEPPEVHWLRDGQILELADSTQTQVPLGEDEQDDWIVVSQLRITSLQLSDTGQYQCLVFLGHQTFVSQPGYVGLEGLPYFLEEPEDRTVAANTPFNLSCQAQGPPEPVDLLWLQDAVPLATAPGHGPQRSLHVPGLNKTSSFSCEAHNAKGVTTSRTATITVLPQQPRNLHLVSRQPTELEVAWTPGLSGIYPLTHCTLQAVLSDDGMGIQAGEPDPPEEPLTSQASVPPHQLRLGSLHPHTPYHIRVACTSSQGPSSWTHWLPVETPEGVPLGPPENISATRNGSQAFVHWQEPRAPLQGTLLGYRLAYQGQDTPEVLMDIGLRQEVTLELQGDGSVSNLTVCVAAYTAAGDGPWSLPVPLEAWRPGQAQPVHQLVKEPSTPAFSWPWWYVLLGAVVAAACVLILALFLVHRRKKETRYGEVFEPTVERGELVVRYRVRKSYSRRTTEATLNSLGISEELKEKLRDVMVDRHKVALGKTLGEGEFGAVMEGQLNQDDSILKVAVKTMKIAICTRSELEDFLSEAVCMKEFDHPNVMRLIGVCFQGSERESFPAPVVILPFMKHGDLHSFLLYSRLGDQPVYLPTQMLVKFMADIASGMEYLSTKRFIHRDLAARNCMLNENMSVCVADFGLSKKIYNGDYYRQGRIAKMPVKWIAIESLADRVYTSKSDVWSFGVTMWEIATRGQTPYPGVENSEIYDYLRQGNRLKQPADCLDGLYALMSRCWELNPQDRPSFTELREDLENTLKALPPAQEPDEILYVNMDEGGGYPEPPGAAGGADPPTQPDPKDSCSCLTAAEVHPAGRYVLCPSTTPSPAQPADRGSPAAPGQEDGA
Test: KINOMEscan ScanTK
Type: binding
Conditions: @1000nM
# key: entry, value: difference in %Control versus compound Ib at 1 µM
measurement.type: difference in %Control versus compound Ib at 1 µM (%)

Cc1cnc(S(C)(=O)=O)nc1N1CCCC(n2nc(-c3ccc(Oc4ccccc4)cc3)c3c(N)ncnc32)C1 (stereo not shown) ... 25
CNC(=O)c1cnc(S(C)(=O)=O)nc1N1CCCC(n2nc(-c3ccc(Oc4ccccc4)cc3)c3c(N)ncnc32)C1 (stereo not shown) ... 22
COC(=O)c1cnc(S(C)(=O)=O)nc1N1CCCC(n2nc(-c3ccc(Oc4ccccc4)cc3)c3c(N)ncnc32)C1 (stereo not shown) ... 25
CCOC(=O)c1cnc(S(C)(=O)=O)nc1N1CCC[C@@H](n2nc(-c3ccc(Oc4ccccc4)cc3)c3c(N)ncnc32)C1 ... 25

###

Molecular target: FGR (Homo sapiens)
Construct: purchased Eurofins DiscoverX KINOMEscan (scanTK)
Assay: KINOMEscan ScanTK
Assay type: binding
Settings: @1000nM
# key: entry, value: difference in %Control versus compound Ib at 1 µM
measurement.type: difference in %Control versus compound Ib at 1 µM (%)

COC(=O)c1cnc(S(C)(=O)=O)nc1N1CCCC(n2nc(-c3ccc(Oc4ccccc4)cc3)c3c(N)ncnc32)C1 (stereo not shown) ... 20.7
CNC(=O)c1cnc(S(C)(=O)=O)nc1N1CCCC(n2nc(-c3ccc(Oc4ccccc4)cc3)c3c(N)ncnc32)C1 (stereo not shown) ... 10.7
CCOC(=O)c1cnc(S(C)(=O)=O)nc1N1CCC[C@@H](n2nc(-c3ccc(Oc4ccccc4)cc3)c3c(N)ncnc32)C1 ... 13.7
Cc1cnc(S(C)(=O)=O)nc1N1CCCC(n2nc(-c3ccc(Oc4ccccc4)cc3)c3c(N)ncnc32)C1 (stereo not shown) ... 3.3

###

Target: MST1R (Homo sapiens, UniProt Q04912)
Construct: purchased Eurofins DiscoverX KINOMEscan (scanTK)
Test: KINOMEscan ScanTK
Format: binding
Conditions: @1000nM, read-out: %Control
# key: entry, value: remaining binding at 1 µM
measurement.type: remaining binding at 1 µM (%)

Cc1cnc(S(C)(=O)=O)nc1N1CCCC(n2nc(-c3ccc(Oc4ccccc4)cc3)c3c(N)ncnc32)C1 (stereo not shown) [Compound 8a] ... 100
CCOC(=O)c1cnc(S(C)(=O)=O)nc1N1CCC[C@@H](n2nc(-c3ccc(Oc4ccccc4)cc3)c3c(N)ncnc32)C1 [Compound 8c] ... 98
COC(=O)c1cnc(S(C)(=O)=O)nc1N1CCCC(n2nc(-c3ccc(Oc4ccccc4)cc3)c3c(N)ncnc32)C1 (stereo not shown) [Compound 8b] ... 96
CNC(=O)c1cnc(S(C)(=O)=O)nc1N1CCCC(n2nc(-c3ccc(Oc4ccccc4)cc3)c3c(N)ncnc32)C1 (stereo not shown) [Compound 8d] ... 100

###

Molecular target: ROS1 (Homo sapiens, UniProt P08922)
Construct: purchased Eurofins DiscoverX KINOMEscan (scanTK)
Sequence (P08922 28-2347): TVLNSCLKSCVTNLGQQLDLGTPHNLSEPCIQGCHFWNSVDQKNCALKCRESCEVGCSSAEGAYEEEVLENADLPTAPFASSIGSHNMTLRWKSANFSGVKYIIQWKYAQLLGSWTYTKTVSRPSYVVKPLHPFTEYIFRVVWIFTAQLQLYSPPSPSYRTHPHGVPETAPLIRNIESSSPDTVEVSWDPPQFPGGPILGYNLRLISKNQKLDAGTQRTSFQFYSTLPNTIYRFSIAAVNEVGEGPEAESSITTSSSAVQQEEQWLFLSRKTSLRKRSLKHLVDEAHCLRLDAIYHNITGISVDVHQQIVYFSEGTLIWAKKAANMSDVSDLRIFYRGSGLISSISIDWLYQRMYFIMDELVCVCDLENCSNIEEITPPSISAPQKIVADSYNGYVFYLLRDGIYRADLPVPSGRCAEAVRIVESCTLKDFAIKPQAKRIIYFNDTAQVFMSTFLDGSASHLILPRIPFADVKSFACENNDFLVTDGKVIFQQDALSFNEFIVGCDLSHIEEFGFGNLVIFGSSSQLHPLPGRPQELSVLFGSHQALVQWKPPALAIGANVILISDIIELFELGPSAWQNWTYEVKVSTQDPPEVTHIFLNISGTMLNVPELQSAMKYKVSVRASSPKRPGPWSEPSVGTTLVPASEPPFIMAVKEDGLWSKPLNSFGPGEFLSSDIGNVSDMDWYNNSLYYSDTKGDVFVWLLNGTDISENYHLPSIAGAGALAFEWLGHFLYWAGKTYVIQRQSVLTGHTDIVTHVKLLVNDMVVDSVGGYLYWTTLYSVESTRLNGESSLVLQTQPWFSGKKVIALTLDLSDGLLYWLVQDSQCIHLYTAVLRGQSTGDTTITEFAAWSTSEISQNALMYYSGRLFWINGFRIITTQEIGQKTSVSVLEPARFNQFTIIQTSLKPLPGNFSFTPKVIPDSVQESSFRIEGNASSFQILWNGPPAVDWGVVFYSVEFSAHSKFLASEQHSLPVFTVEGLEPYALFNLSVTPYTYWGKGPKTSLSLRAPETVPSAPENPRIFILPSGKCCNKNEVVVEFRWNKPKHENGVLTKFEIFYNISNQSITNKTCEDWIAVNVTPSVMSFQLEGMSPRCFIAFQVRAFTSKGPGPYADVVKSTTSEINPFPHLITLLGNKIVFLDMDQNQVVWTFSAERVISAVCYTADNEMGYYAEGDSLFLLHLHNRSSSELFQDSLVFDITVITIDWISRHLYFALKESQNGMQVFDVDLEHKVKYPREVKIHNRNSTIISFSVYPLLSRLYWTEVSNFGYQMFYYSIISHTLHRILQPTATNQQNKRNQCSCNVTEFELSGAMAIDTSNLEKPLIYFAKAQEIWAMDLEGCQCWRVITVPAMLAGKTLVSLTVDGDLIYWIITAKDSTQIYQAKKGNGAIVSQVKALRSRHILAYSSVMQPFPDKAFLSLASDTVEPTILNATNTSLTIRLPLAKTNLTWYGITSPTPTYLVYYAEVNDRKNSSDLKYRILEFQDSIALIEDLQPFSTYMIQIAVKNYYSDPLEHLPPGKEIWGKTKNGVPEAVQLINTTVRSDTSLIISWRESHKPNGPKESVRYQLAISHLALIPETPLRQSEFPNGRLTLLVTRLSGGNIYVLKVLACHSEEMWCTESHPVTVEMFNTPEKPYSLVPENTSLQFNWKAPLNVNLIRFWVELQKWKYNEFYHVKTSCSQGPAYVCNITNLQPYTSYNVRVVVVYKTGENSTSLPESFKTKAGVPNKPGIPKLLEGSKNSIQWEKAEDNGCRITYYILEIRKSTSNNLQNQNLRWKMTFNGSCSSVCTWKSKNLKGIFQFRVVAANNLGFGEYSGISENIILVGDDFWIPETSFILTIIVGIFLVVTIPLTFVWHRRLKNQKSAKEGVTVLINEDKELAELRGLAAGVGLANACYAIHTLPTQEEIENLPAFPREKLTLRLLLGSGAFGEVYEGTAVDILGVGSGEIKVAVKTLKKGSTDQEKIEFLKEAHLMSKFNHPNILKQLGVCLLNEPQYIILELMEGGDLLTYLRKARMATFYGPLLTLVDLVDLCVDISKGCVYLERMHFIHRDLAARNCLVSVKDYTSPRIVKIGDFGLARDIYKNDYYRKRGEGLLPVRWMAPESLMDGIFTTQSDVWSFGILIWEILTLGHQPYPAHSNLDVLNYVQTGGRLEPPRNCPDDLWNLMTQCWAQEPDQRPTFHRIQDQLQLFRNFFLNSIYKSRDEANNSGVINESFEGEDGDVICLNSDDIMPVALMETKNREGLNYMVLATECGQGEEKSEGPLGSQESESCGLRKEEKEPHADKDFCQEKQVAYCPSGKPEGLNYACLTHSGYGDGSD
Assay: KINOMEscan ScanTK
Type: binding
Settings: @1000nM, read-out: %Control
measurement.type: remaining binding at 1 µM

C=CC(=O)N1CCC[C@@H](n2nc(-c3ccc(Oc4ccccc4)cc3)c3c(N)ncnc32)C1 [Compound 1g, Ibrutinib, reference compound] ... 97%
CNC(=O)c1cnc(S(C)(=O)=O)nc1N1CCCC(n2nc(-c3ccc(Oc4ccccc4)cc3)c3c(N)ncnc32)C1 (centres unmarked) ... 100%
Cc1cnc(S(C)(=O)=O)nc1N1CCCC(n2nc(-c3ccc(Oc4ccccc4)cc3)c3c(N)ncnc32)C1 (centres unmarked) ... 93%
COC(=O)c1cnc(S(C)(=O)=O)nc1N1CCCC(n2nc(-c3ccc(Oc4ccccc4)cc3)c3c(N)ncnc32)C1 (centres unmarked) ... 86%
CCOC(=O)c1cnc(S(C)(=O)=O)nc1N1CCC[C@@H](n2nc(-c3ccc(Oc4ccccc4)cc3)c3c(N)ncnc32)C1 ... 100%

###

Target: PDGFRA (Homo sapiens)
Construct: purchased Eurofins DiscoverX KINOMEscan (scanTK)
Assay: KINOMEscan ScanTK
Format: binding
Conditions: read-out: %Control @1000nM
measurement.type: remaining binding at 1 µM

CNC(=O)c1cnc(S(C)(=O)=O)nc1N1CCCC(n2nc(-c3ccc(Oc4ccccc4)cc3)c3c(N)ncnc32)C1 (centres unmarked) [Compound 8d] ... 78%
COC(=O)c1cnc(S(C)(=O)=O)nc1N1CCCC(n2nc(-c3ccc(Oc4ccccc4)cc3)c3c(N)ncnc32)C1 (centres unmarked) [Compound 8b] ... 90%
CCOC(=O)c1cnc(S(C)(=O)=O)nc1N1CCC[C@@H](n2nc(-c3ccc(Oc4ccccc4)cc3)c3c(N)ncnc32)C1 [Compound 8c] ... 91%
C=CC(=O)N1CCC[C@@H](n2nc(-c3ccc(Oc4ccccc4)cc3)c3c(N)ncnc32)C1 [Compound 1g, Ibrutinib, reference compound] ... 49%
Cc1cnc(S(C)(=O)=O)nc1N1CCCC(n2nc(-c3ccc(Oc4ccccc4)cc3)c3c(N)ncnc32)C1 (centres unmarked) [Compound 8a] ... 72%

###

Biological target: SRMS (Homo sapiens, UniProt Q9H3Y6)
Construct: purchased Eurofins DiscoverX KINOMEscan (scanTK)
Sequence (Q9H3Y6 whole entry): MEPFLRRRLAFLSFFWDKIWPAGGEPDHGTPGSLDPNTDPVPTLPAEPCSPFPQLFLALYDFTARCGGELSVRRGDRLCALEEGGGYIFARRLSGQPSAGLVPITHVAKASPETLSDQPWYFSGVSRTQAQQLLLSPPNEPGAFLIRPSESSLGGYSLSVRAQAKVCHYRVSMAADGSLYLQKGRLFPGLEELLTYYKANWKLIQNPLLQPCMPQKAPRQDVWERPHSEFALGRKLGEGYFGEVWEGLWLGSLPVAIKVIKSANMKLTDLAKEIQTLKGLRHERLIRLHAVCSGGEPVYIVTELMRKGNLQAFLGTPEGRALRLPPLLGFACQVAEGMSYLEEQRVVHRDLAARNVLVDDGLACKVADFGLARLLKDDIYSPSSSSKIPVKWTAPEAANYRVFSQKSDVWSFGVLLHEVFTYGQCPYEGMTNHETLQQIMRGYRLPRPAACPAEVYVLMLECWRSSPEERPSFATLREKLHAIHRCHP
Assay: KINOMEscan ScanTK
Type: binding
Settings: SRMS; read-out: %Control @1000nM
# key: entry, value: remaining binding at 1 µM
measurement.type: remaining binding at 1 µM (%)

C=CC(=O)N1CCC[C@@H](n2nc(-c3ccc(Oc4ccccc4)cc3)c3c(N)ncnc32)C1 [Compound 1g, Ibrutinib, reference compound] ... 0
CCOC(=O)c1cnc(S(C)(=O)=O)nc1N1CCC[C@@H](n2nc(-c3ccc(Oc4ccccc4)cc3)c3c(N)ncnc32)C1 ... 32
COC(=O)c1cnc(S(C)(=O)=O)nc1N1CCCC(n2nc(-c3ccc(Oc4ccccc4)cc3)c3c(N)ncnc32)C1 (centres unmarked) ... 27
CNC(=O)c1cnc(S(C)(=O)=O)nc1N1CCCC(n2nc(-c3ccc(Oc4ccccc4)cc3)c3c(N)ncnc32)C1 (centres unmarked) ... 6.5
Cc1cnc(S(C)(=O)=O)nc1N1CCCC(n2nc(-c3ccc(Oc4ccccc4)cc3)c3c(N)ncnc32)C1 (centres unmarked) ... 16

###

# key: entry, value: remaining binding at 1 µM
Biological target: FGFR3 (Homo sapiens)
Construct: purchased Eurofins DiscoverX KINOMEscan (scanTK)
Sequence (P22607 23-806): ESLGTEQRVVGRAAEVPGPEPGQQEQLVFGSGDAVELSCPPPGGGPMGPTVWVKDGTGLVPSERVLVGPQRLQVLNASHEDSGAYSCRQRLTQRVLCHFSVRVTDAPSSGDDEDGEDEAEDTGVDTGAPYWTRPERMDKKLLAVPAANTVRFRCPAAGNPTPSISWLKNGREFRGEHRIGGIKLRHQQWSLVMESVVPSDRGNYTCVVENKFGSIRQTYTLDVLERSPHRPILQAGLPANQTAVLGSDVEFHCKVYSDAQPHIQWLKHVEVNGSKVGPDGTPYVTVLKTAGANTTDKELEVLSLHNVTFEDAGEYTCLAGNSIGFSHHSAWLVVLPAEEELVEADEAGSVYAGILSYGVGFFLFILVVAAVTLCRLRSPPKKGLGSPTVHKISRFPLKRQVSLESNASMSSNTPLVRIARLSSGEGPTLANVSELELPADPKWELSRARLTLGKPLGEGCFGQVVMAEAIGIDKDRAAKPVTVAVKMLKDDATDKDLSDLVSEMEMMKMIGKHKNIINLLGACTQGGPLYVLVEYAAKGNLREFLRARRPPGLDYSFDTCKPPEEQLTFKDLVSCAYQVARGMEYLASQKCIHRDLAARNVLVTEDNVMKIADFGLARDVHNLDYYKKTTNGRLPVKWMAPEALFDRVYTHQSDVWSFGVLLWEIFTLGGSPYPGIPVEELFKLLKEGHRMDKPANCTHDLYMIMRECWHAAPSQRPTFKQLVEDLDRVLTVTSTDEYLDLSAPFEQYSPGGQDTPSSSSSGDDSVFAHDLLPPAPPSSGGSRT
Assay: KINOMEscan ScanTK
Type: binding
Conditions: @1000nM, read-out: %Control
measurement.type: remaining binding at 1 µM (%)

COC(=O)c1cnc(S(C)(=O)=O)nc1N1CCCC(n2nc(-c3ccc(Oc4ccccc4)cc3)c3c(N)ncnc32)C1 (centres unmarked) [Compound 8b] ... 95
CCOC(=O)c1cnc(S(C)(=O)=O)nc1N1CCC[C@@H](n2nc(-c3ccc(Oc4ccccc4)cc3)c3c(N)ncnc32)C1 [Compound 8c] ... 96
CNC(=O)c1cnc(S(C)(=O)=O)nc1N1CCCC(n2nc(-c3ccc(Oc4ccccc4)cc3)c3c(N)ncnc32)C1 (centres unmarked) [Compound 8d] ... 99
C=CC(=O)N1CCC[C@@H](n2nc(-c3ccc(Oc4ccccc4)cc3)c3c(N)ncnc32)C1 [Compound 1g, Ibrutinib, reference compound] ... 48
Cc1cnc(S(C)(=O)=O)nc1N1CCCC(n2nc(-c3ccc(Oc4ccccc4)cc3)c3c(N)ncnc32)C1 (centres unmarked) [Compound 8a] ... 92
